testedSystem: T1, CD134 expressed on the cell surface of HT1080_OX40 cells (human, UniProt P43489 29-277)
T1 sequence (looked up): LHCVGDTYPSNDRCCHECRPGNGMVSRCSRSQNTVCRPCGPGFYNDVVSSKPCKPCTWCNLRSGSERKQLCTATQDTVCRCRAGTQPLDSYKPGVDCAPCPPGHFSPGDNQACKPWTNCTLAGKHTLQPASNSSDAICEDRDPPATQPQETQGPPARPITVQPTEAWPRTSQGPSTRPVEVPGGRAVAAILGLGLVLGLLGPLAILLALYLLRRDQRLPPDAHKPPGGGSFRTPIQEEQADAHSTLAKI
procedureDetails: cell-based or functional assay
// reported EC 50 (IL-8 release, cross-linked) per item
quantity: EC 50 (IL-8 release, cross-linked) (ng/mL)

P018.S.11.A.A06 (antibody, V domains shown, V regions on human Ig constant parts; also called AB134_23) VH: QEQLVESGGGLVQPEGSLTLTCKASGFSFSSANCMHWVRQAPEKGLQWIGCVCIGDGTTYYASWVNGRFSISATSSTTVTIQMTSLTAADTATYFCARDLGLWGPGTLVTVSS VL: AIVMTQTPSSKSVPVGDTVTINCQASESVDKYTQCSWYQQKPGQPPKLLIYYASTLASGVPSRFKGSGSGTQFTLTISDVVSDDAATYYCSGYKGGSADMIAFGGGTELVVT ... 2090
P018.S.12.A.D05 (antibody, V domains shown, V regions on human Ig constant parts; also called AB134_70) VH: QEQLKESGGGVVTPGGTLTLTCTASAFSLNHYNIQWVRQAPGKGLEWIGWILTDGTEYYANWAKGRFTISKTSTTVDLKIASPTTEDTATYFCAREGDWGVDSLWGPGTLVTVSS VL: ALVMTQTPSPVSAAVGGTVTISCQSSQSVDNNDFLSWYQQKPGQPPKLLIYLASKLASGVPSRFSGSGSGTQFTLTISGVQSDDAATYYCKGLYFDSGWYAAFGGGTEVVVE ... 2400
